Test: Molar enthalpy of transition or fusion
Conditions: Crystal; DSC
We label by threshold. Values of Molar enthalpy of transition or fusion strictly beneath 3 kcal/mol are 1 (yes). Values of 3 kcal/mol and up are 0 (no).

Some solved cases for reference:
Molecule: CC(=O)[O-].[K+] [potassium ethanoate]
Cat: 1 (yes)

Molecule: CC(=O)[O-].[Rb+] [rubidium acetate]
Cat: 1 (yes)

Molecule: CC(=O)[O-].[Na+] [sodium ethanoate]
Cat: 0 (no)

Now take the following molecule into account.
Does this molecule meet the criterion Molar enthalpy of transition or fusion < 3 kcal/mol? CC(=O)[O-].[Cs+] [cesium acetate]
1 (yes)

* * *

Details: Crystal; DTA
# reported Normal melting temperature; entries follow
Write the number in °C without appending the unit.

Compound: CC(=O)[O-].[Rb+] [rubidium acetate]
Unit Descriptor: °C
Normal melting temperature: 240.5

// field: Normal melting temperature; key: CC(=O)[O-].[Li+] [lithium acetate] ; value = 283.5

Normal melting temperature recorded for this compound, CC(=O)[O-].[K+] [potassium ethanoate] , is 305.2

Entry CC(=O)[O-].[Na+] [sodium ethanoate] — recorded Normal melting temperature = 329.4

// sample CC(=O)[O-].[Cs+] [cesium acetate] , its Normal melting temperature was 191.6

Every entry's value here was drawn from the NIST ThermoML archive (doi:10.1016/j.tca.2004.11.004).
